# Tested on: MS2 coat protein
# protocol: apparent Kd, MS2 coat protein; higher = weaker binding; RNA-MaP array
# assaySetup: designed as: OFF switch for flavin mononucleotide; no ligand
Tick label 1 if apparent Kd is 20 nM or greater. Tick label 0 if apparent Kd is less than 20 nM.

[in] Record UAAAUCGAAGGAUAUACAUGUACAAGUAUCCGUCAAAGAGCACAUGAGGAUCACCCAUGUAGAAGGUCGACUAA ; criterion: apparent Kd no lower than 20 nM. Met?
[out] label 0

[in] Evaluate ACGUAGGGCUAGAAGGCUCUAACAAGGUGCCCAUAAAAUAACAUGAGGAUCACCCAUGUUAGUAGAGAGGAUAUAGACUCAUGU : apparent Kd at minimum 20 nM?
[out] label 0

[in] Answer whether apparent Kd of GUAGAGCUCAUAGGAUAUACUCGACCGGAGGCAGUAGAAGGAUGCGUCAAAUACAUGAGGAUCACCCAUGUGAUGGUAAUCGUC is greater than or equal to 20 nM.
[out] label 0

[in] Exam item: decide whether the reported apparent Kd for UAUUAACAAGGAUAUACAUGAGGAUCACCCAUGUGAAACUAUUUUAUAAUAACAACAAGUAGAAGGAGUUAAAA is at least 20 nM.
[out] label 0

[in] Is reported apparent Kd greater than or equal to 20 nM here: AUGCAUCUAGGAUAUGCGGUGAUUUACAUGAGGAUCACCCAUGUAGACCACCGGUCUAGAGCAGAAGGAGAUGUGG
[out] label 0

[in] Is the recorded value of apparent Kd equal to or greater than 20 nM for this sequence? AAUUGGAUCACAUGAGGAUCACCCAUGUCGGAAACUUUACUCAGAAGGAUGUGUACUUUUUCCACAUAGGAUAUGAGUACGACA
[out] label 1

[in] Identify whether the reported apparent Kd of the following sequence is 20 nM or greater: CGCGUGUUCGAGGAUAUGGAACUGAUAUUAGACCCAGAAGGCGAGACAUGAGGAUCACCCAUGUGAGGACUAAC
[out] label 0

[in] Reported apparent Kd reaches at least 20 nM for AAAUGUGUAUAGGAUAUCUUGACCCACGCAUUCAGAGAAGGAUACACAUGAGGAUCACCCAUGUUGAGACGGAA ?
[out] label 0

[in] Check this sequence for apparent Kd at or above 20 nM: CCGAAUCAAACUGAUAGUCUACAUGAGGAUCACCCAUGUGAAAAGGAUAUCUUUUGAACUGACGAAGAGAAGGUUUUAGAGGGU
[out] label 0

[in] Determine whether this sequence has apparent Kd no lower than 20 nM: AACAAGGAAGGAUAUACAUGAGGAUCACCCAUGUCACUAGGGCCUCCCGCUUCGCUGUGUAGAAGGACCAUGAA
[out] label 0

[in] # bool: apparent Kd of GACAGUUUAUAGGAUAUCGACUCGACUGGGCAUCGAGAAGGAUAAACAUGAGGAUCACCCAUGUGUGGUAGGAA >= 20 nM
[out] label 1
